- Test system: HL-60
- METHOD: cell viability (% survival relative to DMSO control); higher = less cytotoxic
- EXPERIMENTAL SETUP: 0.001 µM; 72 h; co-treatment: AZD3965 100 nM
RECORDED ENDPOINT: cell viability (%)
Express the result in % but write the number alone.

Which cell viability is listed for O=C(NNc1ccccc1)c1ccncc1 [PluriSln 1] ? 101

Which cell viability is listed for NCCCC(N)(C(=O)O)C(F)F (stereo not given) [Difluoromethylornithine] ? 105

Which cell viability is listed for NS(=O)(=O)c1ccc([N+](=O)[O-])cc1 [4-Nitrobenzenesulfonamide] ? 91.2

Which cell viability is listed for O=C(O)Cn1nnc(-c2cc(N3CCC(Oc4cc(F)ccc4Br)CC3)no2)n1 [MK-8245] ? 94.6

Which cell viability is listed for NC(=O)c1cccc(-c2cccc(OC(=O)NC3CCCCC3)c2)c1 [URB-597] ? 101
